System: Enterococcus sp.
Test Method Notes: In vitro antibacterial evaluation: minimum inhibitory concentration (MIC), broth dilution method
Assay type: cell-based
Experimental Parameters: broth dilution, inoculum 5×10^5 CFU/mL, 18 hours at 35° C.
Endpoint: MIC Enterococcus faecium (GC 2243) (µg/mL)

Compound: CC(c1ccccc1)C1NC(=O)CNC(=O)C(CO)NC(=O)C(C(O)C2CNC(=N)N2C2OC(CO)C(O)C(O)C2O)NC(=O)C(C(O)C2CNC(=N)N2)NC(=O)C(Cc2ccc(OC3OC(CO)C(OC4OC5COC(c6ccc(-c7cccs7)cc6)OC5C(O)C4O)C(O)C3O)cc2)NC1=O (centres unmarked)
Endpoint: MIC Enterococcus faecium (GC 2243)
Comparison Symbol: =
Numeric Value: 8

Compound: N=C1NCC(C(O)C2NC(=O)C(CC3CCC(OC4OC(CO)C(OC5OC6COC7(OC6C(O)C5O)C5CC6CC(C5)CC7C6)C(O)C4O)CC3)NC(=O)C(CC3CCCCC3)NC(=O)CNC(=O)C(CO)NC(=O)C(C(O)C3CNC(=N)N3C3OC(CO)C(O)C(O)C3O)NC2=O)N1 (centres unmarked) [Example 223]
Endpoint: MIC Enterococcus faecium (GC 2243)
Comparison Symbol: >
Numeric Value: 64

* * *

Test system: Staphylococcus sp.
Test Method Notes: In vitro antibacterial evaluation: minimum inhibitory concentration (MIC), broth dilution method
Assay type: cell-based
Experimental Parameters: strain GC 4543; 18 hours at 35° C.
Recorded MIC Staphylococcus aureus-SMITH (GC 4543) for the following compounds
Endpoint: MIC Staphylococcus aureus-SMITH (GC 4543)

Compound: CC(c1ccccc1)C1NC(=O)CNC(=O)C(CO)NC(=O)C(C(O)C2CNC(=N)N2C2OC(CO)C(O)C(O)C2O)NC(=O)C(C(O)C2CNC(=N)N2)NC(=O)C(Cc2ccc(OC3OC(CO)C(OC4OC5COC(C6CCCCC6)OC5C(O)C4O)C(O)C3O)cc2)NC1=O (centres unmarked)
Result: 0.5 to 1 µg/mL
//
Compound: CCCC(CCC)C(=O)OCC1OC(Oc2ccc(CC3NC(=O)C(C(C)c4ccccc4)NC(=O)CNC(=O)C(CO)NC(=O)C(C(O)C4CNC(=N)N4C4OC(CO)C(O)C(O)C4O)NC(=O)C(C(O)C4CNC(=N)N4)NC3=O)cc2)C(O)C(O)C1OC1OC(CO)C(O)C(O)C1O (centres unmarked) [Example 99b]
Result: 4 µg/mL
//
Compound: CC(c1ccccc1)C1NC(=O)CNC(=O)C(CO)NC(=O)C(C(O)C2CNC(=N)N2C2OC(CO)C(O)C(O)C2O)NC(=O)C(C(O)C2CNC(=N)N2)NC(=O)C(Cc2ccc(OC3OC(CO)C(OC4OC5COC(Cc6ccc(Br)cc6)OC5C(O)C4O)C(O)C3O)cc2)NC1=O (centres unmarked)
Result: <0.5 to 1 µg/mL
//
Compound: COc1ccc(CC2OCC3OC(OC4C(CO)OC(Oc5ccc(CC6NC(=O)C(C(C)c7ccccc7)NC(=O)CNC(=O)C(CO)NC(=O)C(C(O)C7CNC(=N)N7C7OC(CO)C(O)C(O)C7O)NC(=O)C(C(O)C7CNC(=N)N7)NC6=O)cc5)C(O)C4O)C(O)C(O)C3O2)cc1 (centres unmarked)
Result: 1 µg/mL
//
Compound: CC(c1ccccc1)C1NC(=O)CNC(=O)C(CO)NC(=O)C(C(O)C2CNC(=N)N2C2OC(CO)C(O)C(O)C2O)NC(=O)C(C(O)C2CNC(=N)N2)NC(=O)C(Cc2ccc(OC3OC(CO)C(OC4OC5COC(CC6CCN(C(=O)OCc7ccccc7)CC6)OC5C(O)C4O)C(O)C3O)cc2)NC1=O (centres unmarked)
Result: 1 µg/mL
